experiment: in vitro; details: mouse, microsomes
observation.type: half-life at 0.5 µM

input: Dear colleague, I am looking for the recorded half-life at 0.5 µM of the following compound: N[C@H]1COc2ccccc2N(CC(=O)N[C@@H](C[C@@H]2CCNC2=O)C(=O)COC(=O)c2c(Cl)cccc2Cl)C1=O
output: < 2 min

* * *

target: cathepsin L (Homo sapiens); construct: purchased RD Systems 952-CY-010; test: Cathepsin L enzymatic assay; type: biochemical; conditions: enzyme assay, at least 10-point dose-response curves in duplicate; read-out: CatL IC50
Sequence (P07711 114-333): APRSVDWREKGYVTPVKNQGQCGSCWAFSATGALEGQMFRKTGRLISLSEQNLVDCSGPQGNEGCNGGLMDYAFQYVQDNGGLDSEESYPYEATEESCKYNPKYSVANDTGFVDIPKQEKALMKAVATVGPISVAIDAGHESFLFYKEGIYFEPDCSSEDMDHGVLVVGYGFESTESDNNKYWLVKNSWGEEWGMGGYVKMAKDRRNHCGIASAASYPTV
Give IC50 for every item shown.
One number for each entry, in µM.

{"compound": "O=C(CN1C(=O)[C@@H](NC(=O)c2ccc3ccccc3n2)COc2ccccc21)N[C@@H](C[C@@H]1CCNC1=O)C(=O)COC(=O)c1c(Cl)cccc1Cl", "observation.type": "IC50", "reported.measurement": 23.1}

input: Sample COc1cccc2[nH]c(C(=O)N[C@@H](CC(C)C)C(=O)N[C@@H](C[C@@H]3CCNC3=O)C(=O)COC(=O)c3c(Cl)cccc3Cl)cc12 [Compound 18, reference compound] — what was its IC50?
output: 0.0018
